# Tested on: Saccharomyces cerevisiae BY4741 SeMeCo community
# protocol text: z-score of subpopulation abundance vs DMSO median, subpopulation auxotrophic for LU; higher = larger share of this subpopulation than in DMSO controls
# run conditions: 10 µM; 24 h; SM minimal medium; subpopulation (auxotrophy): LU
Counter-ions that a name gives are not always drawn.
Class 1 (yes): z-score of subpopulation abundance at least -0.05. Class 0 (no): z-score of subpopulation abundance below -0.05.

CC(=O)OCC1=C(C(=O)O)N2C(=O)[C@@H](NC(=O)Cc3cccs3)[C@H]2SC1    0 (no)
Cc1nnc(NS(=O)(=O)c2ccc(N)cc2)s1    0 (no)
CN(CCN1CCC(OC(=O)Nc2ccccc2-c2ccccc2)CC1)C(=O)c1ccc(CN2CCC(C(N)=O)CC2)cc1    1 (yes)
CN1C2CCC1CC(OC(=O)C(O)c1ccccc1)C2 (stereo not given) [Homatropine Bromide]    1 (yes)
COCCOC(=O)C1=C(C)NC(C)=C(C(=O)OC(C)C)C1c1cccc([N+](=O)[O-])c1 (stereo not given)    0 (no)
COc1ccccc1OCC(O)CN1CCN(CC(=O)Nc2c(C)cccc2C)CC1 (stereo not given) [Ranolazine 2HCl]    1 (yes)
CC(C(=O)O)c1ccc2c(c1)[nH]c1ccc(Cl)cc12 (stereo not given)    0 (no)
NC(=O)c1ncn([C@@H]2O[C@H](CO)[C@@H](O)[C@H]2O)n1    1 (yes)
CCCc1nn(C)c2c(=O)[nH]c(-c3cc(S(=O)(=O)N4CCN(C)CC4)ccc3OCC)nc12 [Sildenafil Citrate]    1 (yes)
CCOC(=O)C1=C(COCCN)NC(C)=C(C(=O)OC)C1c1ccccc1Cl (stereo not given) [Amlodipine Besylate]    0 (no)

Is the recorded value of z-score of subpopulation abundance equal to or greater than -0.05 for this compound? C=C1CCC2C(C)(CO)C(O)CCC2(C)C1CC=C1C=COC1=O (stereo not given) [Dehydroandrographolide]
1 (yes)

Is the recorded value of z-score of subpopulation abundance equal to or greater than -0.05 for this compound? CC(=O)OC1CC2(C)C(CC(O)C3C4(C)CCC(O)C(C)C4CCC32C)C1=C(CCC=C(C)C)C(=O)O (stereo not given)
1 (yes)

Is the recorded value of z-score of subpopulation abundance equal to or greater than -0.05 for this compound? Clc1ccc(C(Cn2ccnc2)OCc2ccsc2Cl)c(Cl)c1 (stereo not given)
0 (no)

Is the recorded value of z-score of subpopulation abundance equal to or greater than -0.05 for this compound? COc1ccc2cc(C(=O)O)ccc2c1
0 (no)
